# experiment-summary: qHTS assay to identify small molecule antagonists of the estrogen related receptor (ERR) signaling pathway - cell viability counter screen (AID 1224818);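 further: viability measured after 17.5 h of compound exposure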
# measurement-context: ERR reporter cell line viability counter screen; series mostly up to 46.1 µM
Results filed as inconclusive are left out. The source made the active and inactive calls. The call rests on the fitted dose curve; in most records, active means well fitted cell-killing curve with a large enough effect in the repeat runs; inconclusive means weak or mixed curves; inactive means flat fitted curve, though single readings scatter.
recorded-endpoint: outcome

[[record]]
compound = "N[C@H](CO)C(=O)O"
reading = "inactive"

[[record]]
compound = "CS(=O)(=O)c1ccc(-n2nc(C(F)(F)F)cc2-c2ccc(F)cc2)cc1"
reading = "inactive"

[[record]]
compound = "O=S(=O)(c1cccc2c(I)cccc12)N1CCCNCC1"
reading = "inactive"

[[record]]
compound = "C[C@@H](c1ncncc1F)[C@](O)(Cn1cncn1)c1ccc(F)cc1F"
reading = "inactive"

[[record]]
compound = "OC1(c2ccc(Cl)cc2)CCN(Cc2c[nH]c3ccccc23)CC1"
reading = "inactive"

[[record]]
compound = "O=C1CCC(c2ccc(-n3ccnc3)cc2)=NN1"
reading = "inactive"

[[record]]
compound = "CCCn1c(=O)c2[nH]c(-c3ccc(S(=O)(=O)O)cc3)nc2n(CCC)c1=O"
reading = "inactive"

[[record]]
compound = "CC(C)C[C@H](NC(=O)C1OC1C(=O)O)C(=O)NCCCCN=C(N)N (stereo partly specified)"
reading = "inactive"

[[record]]
compound = "N#C/C(=C\\c1ccc(O)c(O)c1)C(=O)NCCCNC(=O)/C(C#N)=C/c1ccc(O)c(O)c1"
reading = "inactive"

[[record]]
compound = "CN(C)CCCc1cc(C(=O)Nc2ccc(-c3ccncc3)cc2)ccc1O"
reading = "inactive"

[[record]]
compound = "Nc1cc(Cl)c(NC2=NCCN2)c(Cl)c1"
reading = "inactive"


----------
# experiment-summary: qHTS RealTime-Glo MT Cell Viability Assay in HEK293 cells - 0 hour (AID 1224880); further: top concentration of the series differs between compounds; nearly all actives have a fitted effect of over 45% in size
# measurement-context: RealTime-Glo luminescence; series mostly up to 76.8 µM
Records with an inconclusive call do not appear. Active and inactive are the calls of the source. Calls come from the whole dose curve; as a rule, active = well fitted cell-killing curve with a large enough effect in the repeat runs; inconclusive = weak or mixed curves, or effect the other way; inactive = flat fitted curve, though single readings scatter.
recorded-endpoint: activity change, negative = cytotoxicity

[[record]]
molecule = "CCC(=O)OC/C=C(\\C)CCC=C(C)C"
recorded_endpoint = "activity change, negative = cytotoxicity"
reading = "inactive"

[[record]]
molecule = "O=C(NCc1ncc(C(F)(F)F)cc1Cl)c1c(Cl)cccc1Cl"
recorded_endpoint = "activity change, negative = cytotoxicity"
reading = "inactive"

[[record]]
molecule = "Cc1ccc2nc(-c3ccc(N)cc3)sc2c1S(=O)(=O)O"
recorded_endpoint = "activity change, negative = cytotoxicity"
reading = "inactive"

[[record]]
molecule = "O=C(CCCCCCCCc1cccnc1)N1CCC(C=C(c2ccccc2)c2ccccc2)CC1"
recorded_endpoint = "activity change, negative = cytotoxicity"
reading = "inactive"

[[record]]
molecule = "CC(C)(C)c1ccc(OC2CCCCC2O)cc1 (stereo not drawn)"
recorded_endpoint = "activity change, negative = cytotoxicity"
reading = "inactive"

[[record]]
molecule = "Cc1ccc(C=O)cc1"
recorded_endpoint = "activity change, negative = cytotoxicity"
reading = "inactive"

[[record]]
molecule = "CC(c1cc(C(C)(C)C)cc(C(C)(C)C)c1O)c1cc(C(C)(C)C)cc(C(C)(C)C)c1O"
recorded_endpoint = "activity change, negative = cytotoxicity"
reading = "inactive"

[[record]]
molecule = "C/C=C/C(=O)OCC(C)C"
recorded_endpoint = "activity change, negative = cytotoxicity"
reading = "inactive"

[[record]]
molecule = "CC(C)(C)C1=CC(=O)C(C(C)(C)C)=CC1=O"
recorded_endpoint = "activity change, negative = cytotoxicity"
reading = "inactive"

[[record]]
molecule = "C=C(C)CCO"
recorded_endpoint = "activity change, negative = cytotoxicity"
reading = "inactive"

[[record]]
molecule = "CCCCCCCC/C=C\\CCCCCCCC(=O)N(CCO)CCO"
recorded_endpoint = "activity change, negative = cytotoxicity"
reading = "inactive"

[[record]]
molecule = "Oc1cccc2c(O)cccc12"
recorded_endpoint = "activity change, negative = cytotoxicity"
reading = "inactive"

[[record]]
molecule = "SC1CCCCC1"
recorded_endpoint = "activity change, negative = cytotoxicity"
reading = "inactive"

